protocol_notes: qHTS for Inhibitors of Plasmodium falciparum (HB3) proliferation (AID 504318); also: nearly all actives have a fitted effect of over 60% in size
assay_conditions: P. falciparum HB3 in erythrocytes, SYBR Green DNA, 72 h; series mostly up to 7.21 µM
Records with an inconclusive call do not appear. Calls of active or inactive are those of the source. Calls follow the shape of the dose curve; as a rule, active = well fitted inhibition curve with a large enough effect; inconclusive = small, poorly fitted or top-dose-only effect; inactive = flat fitted curve, though single readings scatter.
Your answer must be one of the following: t for active, f for inactive

C=CCC(C)(NCc1ccccc1)C(=O)OCC (stereo not given)
f

Task: Test call for this compound, please: COC1=CC2C(=O)C(C(c3ccccc3)C2C)C1(C)O (stereo not given)
Output: f

Task: Also need COc1cccc([C@@H]2Oc3ccc(OC)cc3C(=O)[C@@H]2OC(=O)Nc2cc(OC)c(OC)c(OC)c2)c1 , thanks.
Output: f
